# protein stability index values compiled below
B1: WEE1 (parent)
chain: FISRTSIPNAASEEGDEDDWASNK

Variants of: B1
Experiment: protein stability index of a GFP-peptide fusion (GPS, HEK-293T) (PSI 1-6); higher = more stable;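 further: lentivirally expressed fusions sorted by FACS into six bins by GFP to DsRed ratio, PSI derived from sequencing read proportions per bin multiplied by bin number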
Particulars: c terminus: a fixed tail appended
Number only, please.

>>> print(df.to_string())
   variant_notation  recorded_number
0               S3Q             4.09
1              S22N             4.11
2              D16I                4
3               S3M                4

Below: the item to evaluate.
For this variant ( E14T ), measured protein stability index is 3.99
